B1: TPR 5TU (parent)
chain: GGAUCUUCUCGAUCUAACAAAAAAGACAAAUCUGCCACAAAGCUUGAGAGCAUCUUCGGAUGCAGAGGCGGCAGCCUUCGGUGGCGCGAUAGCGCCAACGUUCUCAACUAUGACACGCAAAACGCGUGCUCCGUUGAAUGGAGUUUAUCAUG

# Variants of: B1
# measurementNotes: polymerase ribozyme fitness, log enrichment relative to wild type (log ratio); higher = more active; in vitro selection for triplet polymerase activity
Variants at the floor of the assay were thinned out.
# polymerase ribozyme fitness (log ratio) values compiled below
reportedMetric: polymerase ribozyme fitness (log ratio)

> print(dat)
                         mutationdescriptor                           reportedmetric  rel  testvalue
1                A12U G42C U61A A106U C132U  polymerase ribozyme fitness (log ratio)    ≤       -4.2
2                      A39U C95U C96A G124A  polymerase ribozyme fitness (log ratio)    =       -3.2
3  C10G U53A C57U G86C A106G C108G A113G U127G  polymerase ribozyme fitness (log ratio)    ≤       -4.2
4                                U55G G143C  polymerase ribozyme fitness (log ratio)    =      -2.79
5                 A21G G68C C85A G92A G128U  polymerase ribozyme fitness (log ratio)    ≤       -4.2
